Entry source: ChEMBL document CHEMBL3885861

# AST per entry
Species on record: Rattus norvegicus
Experiment Notes: Open TG-GATES - Regimen: Single
Format: toxicity, organism-based, Sprague-Dawley
Parameters: regimen Single, gender Male, age 6 weeks
Assay Setup: in vivo, po, 0 mg/kg, 9 h, tissue Plasma, route gavage, dose level Control
The reply should contain only the number, in IU/L.

A selection of reference data follows.
{"Molecule": "C=C(C)[C@H]1Cc2c(ccc3c2O[C@@H]2COc4cc(OC)c(OC)cc4[C@@H]2C3=O)O1", "Measure Unit": "IU/L", "Assay Value": 64.4}
{"Molecule": "C[C@H]1C(=O)O[C@@H]2CCN3CC=C(COC(=O)[C@](C)(O)[C@]1(C)O)[C@H]23", "Measure Unit": "IU/L", "Assay Value": 67.8}
{"Molecule": "C[C@H]1O[C@H](O[C@H]2[C@H](O)[C@@H](O)[C@@H](O[C@H]3[C@H](O)[C@@H](O)C(O)O[C@@H]3CO)O[C@@H]2CO)[C@H](O)[C@@H](O)[C@@H]1N[C@H]1C=C(CO)[C@@H](O)[C@H](O)[C@H]1O (some centres undefined)", "Measure Unit": "IU/L", "Assay Value": 69.4}
{"Molecule": "O=[N+]([O-])c1ccc(O)c([N+](=O)[O-])c1", "Measure Unit": "IU/L", "Assay Value": 63.8}
{"Molecule": "OCCN1CCN(CCCN2c3ccccc3Sc3ccc(C(F)(F)F)cc32)CC1", "Measure Unit": "IU/L", "Assay Value": 58.8}

Ask | Suppose we examine the molecule Cc1cccc(C)c1OCC(C)N (centres undefined) ; what AST value has been reported?
Reply | 66.2

Ask | # query: AST of entry Cn1cc[nH]c1=S
Reply | 68.8

Ask | AST lookup needed for CCOC(=O)C(C)(C)Oc1ccc(Cl)cc1 [CLOFIBRATE] , thanks.
Reply | 63.6

Ask | Which AST is listed for Cc1ccc2cc3c(ccc4ccccc43)c3c2c1CC3 ?
Reply | 63.4

###

Species: Rattus norvegicus
Experiment Notes: Open TG-GATES - Regimen: Daily Repeat
Assay type: toxicity, organism-based, Sprague-Dawley
Set-up: regimen Daily Repeat, gender Male, age 6 weeks
Assay Setup: in vivo, po, 0 mg/kg, […], tissue Plasma, route gavage, dose level Control, time 14 day
Outcome Measure: TP (g/dL)
Dear colleague, please return just the value in g/dL, with no unit written.

Some entries whose results are on file:
{"Compound": "C[C@H]1C(=O)O[C@@H]2CCN3CC=C(COC(=O)[C@](C)(O)[C@]1(C)O)[C@H]23", "Measure Unit": "g/dL", "TP": 5.9}
{"Compound": "C[C@H]1O[C@H](O[C@H]2[C@H](O)[C@@H](O)[C@@H](O[C@H]3[C@H](O)[C@@H](O)C(O)O[C@@H]3CO)O[C@@H]2CO)[C@H](O)[C@@H](O)[C@@H]1N[C@H]1C=C(CO)[C@@H](O)[C@H](O)[C@H]1O (some centres undefined)", "Measure Unit": "g/dL", "TP": 6}
{"Compound": "O=[N+]([O-])c1ccc(O)c([N+](=O)[O-])c1", "Measure Unit": "g/dL", "TP": 6}
{"Compound": "O=C1CN(/N=C/c2ccc([N+](=O)[O-])o2)C(=O)N1", "Measure Unit": "g/dL", "TP": 5.9}
{"Compound": "Cn1cc[nH]c1=S", "Measure Unit": "g/dL", "TP": 5.8}
{"Compound": "Cc1cccc(C)c1OCC(C)N (centres undefined)", "Measure Unit": "g/dL", "TP": 5.8}

Ask | Recorded TP for OCCN1CCN(CCCN2c3ccccc3Sc3ccc(C(F)(F)F)cc32)CC1 , please?
Reply | 6.2

Ask | Reported TP for C=C(C)[C@H]1Cc2c(ccc3c2O[C@@H]2COc4cc(OC)c(OC)cc4[C@@H]2C3=O)O1 : what is it?
Reply | 5.9

Ask | Name the recorded TP for CCOC(=O)C(C)(C)Oc1ccc(Cl)cc1 [CLOFIBRATE] .
Reply | 5.9
